Format: in vitro ADME
compounds and their reported Human Plasma Maximum % Psilocin
reported-endpoint: Human Plasma Maximum % Psilocin (%)

| smiles-record | measured-value |
| --- | --- |
| CN(C)CCc1c[nH]c2cccc(OC(=O)CCCc3ccccc3)c12 | 75 |
| CC(=O)Oc1ccccc1C(=O)Oc1cccc2[nH]cc(CCN(C)C)c12 | 100 |
| CN(C)CCc1c[nH]c2cccc(OC(=O)c3cccnc3)c12 | 100 |
| CN(C)CCc1c[nH]c2cccc(OC(=O)Cc3ccccc3)c12 | 100 |
| CC(=O)N(C)CCOC(=O)Oc1cccc2[nH]cc(CCN(C)C)c12 | 91 |
